system-under-test: fully phosphorylated, active Mouse ERK2 protein (Mus musculus (Mouse), UniProt P63085)
Sequence (P63085 whole entry): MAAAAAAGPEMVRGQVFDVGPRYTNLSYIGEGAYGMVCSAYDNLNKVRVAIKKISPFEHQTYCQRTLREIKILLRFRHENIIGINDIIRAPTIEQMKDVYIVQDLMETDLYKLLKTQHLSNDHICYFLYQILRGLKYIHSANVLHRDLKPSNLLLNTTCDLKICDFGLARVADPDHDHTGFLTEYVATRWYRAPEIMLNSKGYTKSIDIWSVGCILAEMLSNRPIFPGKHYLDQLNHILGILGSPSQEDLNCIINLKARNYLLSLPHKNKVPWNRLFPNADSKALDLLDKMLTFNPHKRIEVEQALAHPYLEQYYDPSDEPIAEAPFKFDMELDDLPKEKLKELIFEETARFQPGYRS
Let's look at some compounds and their measured IC50.
measured-property: IC50 (nM)

compound | observed-value
O=C(NC12CC1CCN(Cc1c(F)cccc1F)C2)c1ccc2[nH]nc(-c3ccc4nccn4c3)c2c1 (centres unmarked) | 136
COc1cccc(F)c1CN1CCC[C@@H](NC(=O)c2ccc3[nH]nc(-c4nc5ccccc5s4)c3c2)C1 | 296
Cc1cc(-c2n[nH]c3ccc(C(=O)N[C@@H]4CCCN(CCc5ccccc5C(F)(F)F)C4)cc23)ccn1 | 86.9
O=C(N[C@H]1CCCN(Cc2ccccc2F)C1)c1ccc2[nH]nc(-c3ccncc3)c2c1 | 224
COc1cc(-c2n[nH]c3ccc(C(=O)N[C@@H]4CCCN(Cc5ccccc5F)C4)cc23)ccn1 | 112
COc1cccc(F)c1CN1CCC[C@@H](NC(=O)c2ccc3[nH]nc(-c4ccncc4)c3c2)C1 | 13.9
O=C(NC1COCCN(CCc2cccc(F)c2)C1)c1ccc2[nH]nc(-c3ccncc3)c2c1 (centres unmarked) | 61.6
[2H]C1(N2CCC[C@@H](NC(=O)c3ccc4[nH]nc(-c5ccnc(C)c5)c4c3)C2)CCc2ccccc21 (some centres unmarked) | 62.5
